Assay: In vitro metabolic stability, bovine S9
Type: in vitro ADME
Conditions: S9 fraction
Quick list: microsomal CLint per entry.
Measured Quantity: microsomal CLint

Cc1c(C(=O)N[C@H](C(=O)OC2CCC(F)(F)CC2)C(C)C)ccc2c1B(O)OC2 = 0.3 µL/min/mg
Cc1c(C(=O)N[C@H](C(=O)OCc2ncc3ccccc3n2)C(C)C)ccc2c1B(O)OC2 = 23 µL/min/mg
Cc1c(C(=O)N[C@H](C(=O)OCc2ccc(F)c(C(F)(F)F)c2)C(C)C)ccc2c1B(O)OC2 = 10 µL/min/mg
Cc1c(C(=O)N[C@H](C(=O)OCc2cccc(CN3CCOCC3)c2)C(C)C)ccc2c1B(O)OC2 = 6.8 µL/min/mg
Cc1c(C(=O)N[C@H](C(=O)OCc2cccc(CN(C)C)c2)C(C)C)ccc2c1B(O)OC2 = 5 µL/min/mg
Cc1c(C(=O)N[C@H](C(=O)OC2CCOCC2)C(C)C)ccc2c1B(O)OC2 = 0.6 µL/min/mg
Cc1c(C(=O)N[C@H](C(=O)OCc2ccc(F)cc2)C(C)(C)O)ccc2c1B(O)OC2 = < 1 µL/min/mg
Cc1c(C(=O)N[C@H](C(=O)OCc2ccc(OCCN3CCCC3)cc2)C(C)C)ccc2c1B(O)OC2 = 4 µL/min/mg

====

Experiment: In vitro metabolic stability, bovine S9
Type: in vitro ADME
Settings: S9 fraction
Quick list: log10(microsomal CLint) per entry.
Measured Quantity: log10(microsomal CLint) (log10 of the value in µL/min/mg)

Cc1c(C(=O)N[C@H](C(=O)OCc2nccc(C(F)(F)F)n2)C(C)C)ccc2c1B(O)OC2 = 0.26
Cc1c(C(=O)N[C@H](C(=O)OCc2cnc3ccccc3n2)C(C)C)ccc2c1B(O)OC2 = 1.00
CC(C)[C@H](NC(=O)c1ccc2c(c1C(F)F)B(O)OC2)C(=O)OCc1ccc(F)cc1 = -0.05
Cc1c(C(=O)N[C@H](C(=O)OCc2ccc(C(F)(F)F)nc2)C(C)C)ccc2c1B(O)OC2 = 0.30
Cc1c(C(=O)N[C@H](C(=O)OCc2ccc3ncccc3c2)C(C)C)ccc2c1B(O)OC2 = 0.85
Cc1c(C(=O)N[C@H](C(=O)OCc2cccc(C#N)c2)C(C)C)ccc2c1B(O)OC2 = 0.43
Cc1c(C(=O)N[C@H](C(=O)OCC2CCC(F)(F)CC2)C(C)C)ccc2c1B(O)OC2 = 0.91

====

Quick list: Efficacy in mouse model T. v., n/m (mice survived / total mice in group) per entry.
Test system: T. v. parasites (STIB719/ILRAD560 strain)
Assay: In vivo mouse model of T. vivax infection
Design: species or system NMRI female mice
Conditions: 1 × 10 mg/kg, intraperitoneal, monitored 60 days post treatment
Measured Quantity: Efficacy in mouse model T. v., n/m (mice survived / total mice in group)

Cc1c(C(=O)N[C@H](C(=O)OCc2ccccc2)C(C)C)ccc2c1B(O)OC2 = 4/4
Cc1c(C(=O)N[C@H](C(=O)OCc2ccc(C(F)(F)F)cn2)C(C)C)ccc2c1B(O)OC2 = 4/4 (1 × 10)
Cc1c(C(=O)N[C@H](C(=O)OC2CCC(F)(F)CC2)C(C)C)ccc2c1B(O)OC2 = 4/4 (1 × 10)
Cc1c(C(=O)N[C@H](C(=O)OCc2cccc(N3CCN(C)CC3)c2)C(C)C)ccc2c1B(O)OC2 = 4/4 (1 × 10)
Cc1c(C(=O)N[C@H](C(=O)OCC2CCC(F)(F)CC2)C(C)C)ccc2c1B(O)OC2 = 4/4 (1 × 10)
Cc1c(C(=O)N[C@H](C(=O)OCc2ccc(F)c(F)c2)C(C)C)ccc2c1B(O)OC2 = 4/4 (1 × 10)
Cc1c(C(=O)N[C@H](C(=O)OCC2CCCCC2)C(C)C)ccc2c1B(O)OC2 = 4/4 (1 × 10)
Cc1c(C(=O)N[C@H](C(=O)OC2CCOCC2)C(C)C)ccc2c1B(O)OC2 = 1/4 (1 × 10)
Cc1c(C(=O)N[C@H](C(=O)OCc2ccc(OCCN3CCCC3)cc2)C(C)C)ccc2c1B(O)OC2 = 4/4 (1 × 10)
CC(C)[C@H](NC(=O)c1ccc2c(c1)B(O)OC2)C(=O)OCc1ccccc1 = 1/5
Cc1c(C(=O)N[C@H](C(=O)OCc2ccc(C(F)(F)F)nc2)C(C)C)ccc2c1B(O)OC2 = 4/4 (1 × 10)
Cc1c(C(=O)N[C@H](C(=O)OCC2CCOCC2)C(C)C)ccc2c1B(O)OC2 = 4/4 (1 × 10)
Cc1c(C(=O)N[C@H](C(=O)OCc2cccc(CN(C)C)c2)C(C)C)ccc2c1B(O)OC2 = 4/4 (1 × 10)
